These data points were gathered from patent US12594261B2.

system: neonatal rat ventricular myocytes (NRVMs); test: Myocyte proliferation assay (EdU) in neonatal rat ventricular myocytes; format: cell-based; settings: Rattus norvegicus, Ventricular myocyte; 1 uM compound; growth relative to blank myocyte growth without compound added
Below: a set of entries, each annotated with reported activation at 1 µM.
reported property: activation at 1 µM

structure string | result
CN1C(=O)/C(=C/c2ccccc2F)N=C1N | < 10%
COc1ccc(NC2=N/C(=C\c3ccc4c(c3)OCO4)C(=O)N2)cc1 | 10 to 50%
O=C1NC(NCCN2CCOCC2)=N/C1=C\c1ccc2c(c1)OCCO2 | 10 to 50%
O=C1NC(Nc2ccccc2)=N/C1=C\c1cc2c(cc1Cl)OCO2 | 10 to 50%
NC1=N/C(=C\c2ccc3c(c2)OC(F)(F)O3)C(=O)N1 | 10 to 50%
CC(C)NC1=N/C(=C\c2ccc3c(c2)OCO3)C(=O)N1C | < 10%
COc1cc(/C=C2\N=C(Nc3ccccc3)NC2=O)cc2c1OCO2 | < 10%
Cc1ccc(NC2=N/C(=C\c3ccc4c(c3)OCO4)C(=O)N2)cc1 | 10 to 50%
CN1C(=O)/C(=C/c2cccc(Cl)c2)N=C1N | < 10%
O=C1NC(NCC2CC2)=N/C1=C\c1ccc2c(c1)OCO2 | < 10%

====

test system: neonatal rat ventricular myocytes (NRVMs); test: Myocyte proliferation assay (EdU) in neonatal rat ventricular myocytes; assay type: cell-based; conditions: Rattus norvegicus, Ventricular myocyte; 1 uM compound; growth relative to blank myocyte growth without compound added
Below: a set of entries, each annotated with reported activation at 1 µM.

compound | assay system | activation at 1 µM
COc1cc(/C=C2\N=C(N)NC2=O)cc2c1OCO2 [TJU-B065] | neonatal rat ventricular myocytes (NRVMs) | < 10%
O=C1NC(c2ccccc2)=N/C1=C\c1ccc2c(c1)OC(F)(F)O2 [TJU-B063] | neonatal rat ventricular myocytes (NRVMs) | < 10%
O=C1NC(NCCN2CCOCC2)=N/C1=C\c1ccc2c(c1)OC(F)(F)O2 [TJU-B066] | neonatal rat ventricular myocytes (NRVMs) | 10 to 50%
CN1C(=O)/C(=C/c2ccccc2)N=C1N [TJU-B045] | neonatal rat ventricular myocytes (NRVMs) | < 10%
O=C1NC(Nc2ccccn2)=N/C1=C\c1ccc2c(c1)OCO2 [TJU-B097] | neonatal rat ventricular myocytes (NRVMs) | < 10%
O=C1/C(=C/c2ccc3c(c2)OCO3)N=C(N(Cc2ccccc2)c2ccccc2)N1Cc1ccccc1 [TJU-B076] | neonatal rat ventricular myocytes (NRVMs) | < 10%
Nc1ccc(NC2=N/C(=C\c3ccc4c(c3)OCO4)C(=O)N2)cc1 [TJU-B021] | neonatal rat ventricular myocytes (NRVMs) | < 10%
O=C1NC(Nc2ccc(Cl)cc2)=N/C1=C\c1ccc2c(c1)OCO2 [TJU-B060] | neonatal rat ventricular myocytes (NRVMs) | < 10%
NC1=N/C(=C\c2cc3c(cc2Cl)OCO3)C(=O)N1 [TJU-B064] | neonatal rat ventricular myocytes (NRVMs) | < 10%
O=C1NC(NCc2ccccc2)=N/C1=C\c1ccc2c(c1)OCO2 [TJU-B019] | neonatal rat ventricular myocytes (NRVMs) | < 10%
CN(C1=N/C(=C\c2ccc3c(c2)OCO3)C(=O)N1)c1ccccc1 [TJU-B115] | neonatal rat ventricular myocytes (NRVMs) | < 10%
CN1C(=O)/C(=C/c2ccc3c(c2)OCO3)N=C1Nc1ccccc1 [TJU-B014] | neonatal rat ventricular myocytes (NRVMs) | < 10%
O=C1NC(Nc2ccccc2)=N/C1=C\c1ccc2c(c1)OCCO2 [TJU-B007] | neonatal rat ventricular myocytes (NRVMs) | < 10%
CNC1=N/C(=C\c2ccc3c(c2)OCO3)C(=O)N1 [TJU-B033] | neonatal rat ventricular myocytes (NRVMs) | < 10%
CCNC1=N/C(=C\c2ccc3c(c2)OCO3)C(=O)N1 [TJU-B040] | neonatal rat ventricular myocytes (NRVMs) | 10 to 50%
N#Cc1ccc(NC2=N/C(=C\c3ccc4c(c3)OCO4)C(=O)N2)cc1 [TJU-B058] | neonatal rat ventricular myocytes (NRVMs) | 10 to 50%
O=C1NC(NC2CCCCC2)=N/C1=C\c1ccc2c(c1)OCO2 [TJU-B253] | neonatal rat ventricular myocytes (NRVMs) | < 10%
COc1ccc(/C=C2\N=C(Nc3ccccc3)NC2=O)cc1OC [TJU-B085] | neonatal rat ventricular myocytes (NRVMs) | < 10%
O=C1NC(c2ccccc2)=N/C1=C\c1ccc2c(c1)OCO2 [TJU-B039] | neonatal rat ventricular myocytes (NRVMs) | < 10%
CCN(C1=N/C(=C\c2ccc3c(c2)OCO3)C(=O)N1)c1ccccc1 [TJU-B182] | neonatal rat ventricular myocytes (NRVMs) | 10 to 50%
